Experiment: PK study in male Sprague-Dawley rats dosed once per day for five days, PO 25 mg/kg, 0.5% HPMC (Example 8)
Type: in vivo
Settings: male, Sprague-Dawley, rat, in vivo, po, 25 mg/kg, day five of daily PO 25 mg/kg, 0.5% HPMC suspension, mean (n = 3), read-out: AUCinf
measurement.type: AUC(0-inf) (µg·h/mL)

- given.smiles: "Cc1cc(Nc2cc(N)ncn2)c(=O)n2c1C(=O)NC21CCC2(CC2)CC1"
  reported: 456

* * *

Molecular target: recombinant full-length human kinase MNK1 (Homo sapiens, UniProt Q9BUB5)
Construct: the recombinant full-length human kinase MNK1; made in house; host or cells: insect cells
Sequence (Q9BUB5 whole entry): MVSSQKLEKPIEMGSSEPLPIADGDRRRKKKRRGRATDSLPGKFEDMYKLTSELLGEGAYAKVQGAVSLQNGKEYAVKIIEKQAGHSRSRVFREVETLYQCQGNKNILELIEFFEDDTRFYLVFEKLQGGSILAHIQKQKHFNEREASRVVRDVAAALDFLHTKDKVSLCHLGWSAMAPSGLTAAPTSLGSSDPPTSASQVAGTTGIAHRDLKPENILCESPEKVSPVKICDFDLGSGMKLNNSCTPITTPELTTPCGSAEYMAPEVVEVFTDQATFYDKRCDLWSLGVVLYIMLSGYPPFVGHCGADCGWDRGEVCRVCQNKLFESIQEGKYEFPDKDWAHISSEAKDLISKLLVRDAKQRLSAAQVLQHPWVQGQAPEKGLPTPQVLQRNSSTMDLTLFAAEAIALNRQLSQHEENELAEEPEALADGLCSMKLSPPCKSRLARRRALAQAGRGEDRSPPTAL
Assay: MNK1 radiometric kinase activity assay
Format: biochemical
Details: radiometric activity assay; read-out: MNK1
pIC50: −log10 of the molar value.
measurement.type: pIC50

- compound: "Cc1cc(Nc2cc(N)ncn2)c(=O)n2c1C(=O)NC21CCCC2(CC2)CC1 (racemic) [rac-4ET-01-027]"
  measurement.type: "pIC50"
  reported: 7.45
- compound: "Cc1cc(Nc2cc(NC(=O)C3(CNS(C)(=O)=O)CC3)ncn2)c(=O)n2c1C(=O)NC21CCC2(CC2)CC1 [4ET-03-076]"
  measurement.type: "pIC50"
  reported: 7.43
- compound: "Cc1cc(Nc2cc(NCCO)ncn2)c(=O)n2c1C(=O)NC21CCC2(CC2)CC1 [4ET-03-074]"
  measurement.type: "pIC50"
  reported: 7.34
- compound: "Cc1cc(Nc2cc(NC(=O)C3CC4(C3)CN(C)C4)ncn2)c(=O)n2c1C(=O)NC21CCC2(CC2)CC1 [4ET-03-060]"
  measurement.type: "pIC50"
  reported: 7.51
- compound: "Cc1cc(Nc2cc(NC(=O)C3(CN(C)C)CC3)ncn2)c(=O)n2c1C(=O)NC21CCC2(CC2)CC1 [4ET-03-081]"
  measurement.type: "pIC50"
  reported: 7.52
- compound: "Cc1cc(Nc2cc(NC(=O)[C@H]3[C@@H]4CN(C)C[C@@H]43)ncn2)c(=O)n2c1C(=O)NC21CCC2(CC2)CC1 [4ET-03-061]"
  measurement.type: "pIC50"
  reported: 7.44
- compound: "Cc1cc(Nc2cc(NC(=O)C3CC3)ncn2)c(=O)n2c1C(=O)NC21CCC2(CC1)CN2C(=O)OCc1ccccc1 (stereo not drawn) [4ET-03-046]"
  measurement.type: "pIC50"
  reported: 7.30
- compound: "Cc1cc(Nc2cc(N)ncn2)c(=O)n2c1C(=O)NC21C=CC2(CC2)CC1 (stereo not drawn) [4ET-01-051]"
  measurement.type: "pIC50"
  reported: 7.23
- compound: "Cc1cc(Nc2cc(N)ncn2)c(=O)n2c1C(=O)NC21CC2(CCCC2)C1 [4ET-01-018]"
  measurement.type: "pIC50"
  reported: 7.38
- compound: "CCOC(=O)C1CC12CCC1(CC2)NC(=O)c2c(C)cc(Nc3cc(NC(=O)C4CC4)ncn3)c(=O)n21 (stereo not drawn) [4ET-03-045]"
  measurement.type: "pIC50"
  reported: 6.88
- compound: "Cc1cc(Nc2cc(NC(=O)C3CC3)ncn2)c(=O)n2c1C(=O)NC21CCC2(CC1)CNC2 [4ET-03-049]"
  measurement.type: "pIC50"
  reported: 7.10
- compound: "Cc1cc(Nc2cc(N)ncn2)c(=O)n2c1C(=O)NC21CCC2(CC1)CC2(F)F (stereo not drawn) [4ET-03-068]"
  measurement.type: "pIC50"
  reported: 7.60
- compound: "Cc1cc(Nc2cc(NC(=O)C3(CN)CC3)ncn2)c(=O)n2c1C(=O)NC21CCC2(CC2)CC1 [4ET-03-055]"
  measurement.type: "pIC50"
  reported: 6.90
- compound: "Cc1cc(Nc2cc(N)ncn2)c(=O)n2c1C(=O)NC21CCCC2(CC2)C1 (stereo not drawn) [4ET-01-042]"
  measurement.type: "pIC50"
  reported: 7.78
- compound: "Cc1cc(Nc2cc(N)ncn2)c(=O)n2c1C(=O)NC21CCC2(CCCC2)C1 (stereo not drawn) [4ET-01-016]"
  measurement.type: "pIC50"
  reported: 7.48
- compound: "Cc1cc(Nc2cc(N)ncn2)c(=O)n2c1C(=O)NC21CC2(CCCCC2)C1 [4ET-01-020]"
  measurement.type: "pIC50"
  reported: 7.44
- compound: "Cc1cc(Nc2cc(N)ncn2)c(=O)n2c1C(=O)NC21CCC2(CC2)CC1 [4ET-03-053]"
  measurement.type: "pIC50"
  reported: 6.67
- compound: "Cc1cc(Nc2cc(N)ncn2)c(=O)n2c1C(=O)NC21CC2(CC(F)(F)C2)C1 [4ET-01-017]"
  measurement.type: "pIC50"
  reported: 7.16
- compound: "Cc1cc(Nc2cc(NC(=O)C3CC3)ncn2)c(=O)n2c1C(=O)NC21CC2(CCC2)C1 [4ET-03-043]"
  measurement.type: "pIC50"
  reported: 7.35
- compound: "Cc1cc(Nc2cc(NC(=O)C3CC4(CNC4)C3)ncn2)c(=O)n2c1C(=O)NC21CCC2(CC2)CC1 [4ET-03-057]"
  measurement.type: "pIC50"
  reported: 7.21
- compound: "Cc1cc(Nc2cc(N)ncn2)c(=O)n2c1C(=O)NC21CC2(CCC2)C1 [4ET-01-009]"
  measurement.type: "pIC50"
  reported: 7.88
- compound: "Cc1cc(Nc2cc(N)ncn2)c(=O)n2c1C(=O)NC21CCC2(CCC2)CC1 [4ET-01-019]"
  measurement.type: "pIC50"
  reported: 7.36
- compound: "Cc1cc(Nc2cc(NC(=O)[C@H]3[C@@H]4CNC[C@@H]43)ncn2)c(=O)n2c1C(=O)NC21CCC2(CC2)CC1 [4ET-03-056]"
  measurement.type: "pIC50"
  reported: 7.29
- compound: "Cc1cc(Nc2cc(NC(=O)C3CC3)ncn2)c(=O)n2c1C(=O)NC21CCC2(CC1)CN(C(=O)OC(C)(C)C)C2 [4ET-03-048]"
  measurement.type: "pIC50"
  reported: 6.84

Origin of the recorded values: patent US20250186436A1
